# credit: PubChem BioAssay (NCI)

# Tested on: NCI-H460 lung
# test_method_notes: NCI tumour cell line growth inhibition, 48 h
experimental_readout: TGI

Solved cases (5 shown):
molecule=C/C=C(/I)CBr reported_result="37.4 µM"
molecule="COc1c(/C=C/C(C)(C)O)cc(C2CC(=O)c3c(O)cc(O)cc3O2)cc1CC=C(C)C (stereo unspecified)" reported_result="16.5 µM"
molecule=CC(=N\N)/C(C)=N/N=C(C)/C(C)=N/N reported_result="> 100 µM"
molecule=COc1cc(F)c(F)c(Nc2ccc(I)cc2F)c1NS(=O)(=O)C1(C[C@H](O)CO)CC1 reported_result="> 10 µM"
molecule=CCNc1cc(-c2cccc(OC(F)(F)F)c2)nc2ccc(N3CCCC3)cc12 reported_result="4.1 µM"

Requested read-out: TGI. Entry: O=C(NCCN1CCOCC1)c1cn2c(ccc3sc4ccccc4c(=O)c32)n1
18.3 µM

What TGI value was documented for this molecule, CC(Oc1ccc2c(-c3ccccc3)cc(=O)oc2c1)C(=O)O (stereo unspecified) ?
> 100 µM
